test system: AR mRNA; experiment: Dose-dependent antisense inhibition of human AR in HuVEC cells (electroporation, qRT-PCR RTS3559, IC50); assay type: cell-based; conditions: Table 29; 187.5 nM, HuVEC, electroporation, approximately 16 hours
Oligonucleotides are written 5' to 3', each unit as a sugar letter and its base; * is a phosphorothioate linkage, no mark a phosphodiester; rarer units and linkages stand in square brackets, end groups in braces. Plain capitals give the bases only. k = constrained ethyl (cEt); [5mC] = 5-methylcytosine; d = 2'-deoxy (DNA)
property_label: percent inhibition of AR, 187.5 nM (%)
Answer format: numeric, % implied, no suffix.

Below: 5 substances and their reported percent inhibition of AR, 187.5 nM.
[
  {
    "substance": "583635 (antisense k[5mC]*kT*kG*dG*d[5mC]*dT*d[5mC]*d[5mC]*dG*d[5mC]*dA*d[5mC]*dT*k[5mC]*kG*kG) [compound 583635]",
    "assay_target": "AR mRNA",
    "property_label": "percent inhibition of AR, 187.5 nM",
    "units_symbol": "%",
    "endpoint_result": 56
  },
  {
    "substance": "583564 (antisense kG*k[5mC]*kT*dT*d[5mC]*d[5mC]*dT*d[5mC]*d[5mC]*dG*dA*dG*dT*k[5mC]*kT*kT) [compound 583564]",
    "assay_target": "AR mRNA",
    "property_label": "percent inhibition of AR, 187.5 nM",
    "units_symbol": "%",
    "endpoint_result": 33
  },
  {
    "substance": "583609 (antisense k[5mC]*kA*kG*d[5mC]*dT*dA*dG*d[5mC]*dT*d[5mC]*dG*d[5mC]*d[5mC]*k[5mC]*kG*k[5mC]) [compound 583609]",
    "assay_target": "AR mRNA",
    "property_label": "percent inhibition of AR, 187.5 nM",
    "units_symbol": "%",
    "endpoint_result": 48
  },
  {
    "substance": "583571 (antisense kT*k[5mC]*kA*dG*dT*d[5mC]*d[5mC]*dT*dA*d[5mC]*d[5mC]*dA*dG*kG*k[5mC]*kA) [compound 583571]",
    "assay_target": "AR mRNA",
    "property_label": "percent inhibition of AR, 187.5 nM",
    "units_symbol": "%",
    "endpoint_result": 36
  },
  {
    "substance": "583613 (antisense kG*k[5mC]*kA*dA*dT*dG*dT*dG*d[5mC]*dA*dG*d[5mC]*dT*kA*kG*k[5mC]) [compound 583613]",
    "assay_target": "AR mRNA",
    "property_label": "percent inhibition of AR, 187.5 nM",
    "units_symbol": "%",
    "endpoint_result": 60
  }
]

Data request: Annotate the substance 583660 (antisense kG*kA*k[5mC]*dA*d[5mC]*dA*d[5mC]*dG*dG*dT*dG*dG*dA*k[5mC]*kA*kA) [compound 583660] with its measured percent inhibition of AR, 187.5 nM.
Data returned: 39

Data request: Annotate the substance 549458 (kG*kT*kT*dG*dA*dT*dT*dT*dA*dA*dT*dG*dG*kT*kT*kG) [compound 549458] with its measured percent inhibition of AR, 187.5 nM.
Data returned: 72
